meta.source: patent US20250340574A1

target: CFTR (F508del/MF-HBE cells) (Homo sapiens, UniProt P13569, DEL508-508); construct: human bronchial epithelial (HBE) cells derived from CF subjects heterozygous for F508del and a minimal function CFTR mutation (F508del/MF-HBE); endogenous in cells; host or cells: Primary human bronchial epithelial cells from CF subjects (F508del/MF genotype), differentiated at an air-liquid interface; experiment: Ussing chamber assay of CFTR-mediated short-circuit currents, Assay C (0.026 μM to 25 μM, 6 concentrations); assay type: cell-based; details: with 33 nM potentiator and 18 μM Tezacaftor, 20% human serum
Sequence (P13569 with tags, fused parts or gaps DEL508-508): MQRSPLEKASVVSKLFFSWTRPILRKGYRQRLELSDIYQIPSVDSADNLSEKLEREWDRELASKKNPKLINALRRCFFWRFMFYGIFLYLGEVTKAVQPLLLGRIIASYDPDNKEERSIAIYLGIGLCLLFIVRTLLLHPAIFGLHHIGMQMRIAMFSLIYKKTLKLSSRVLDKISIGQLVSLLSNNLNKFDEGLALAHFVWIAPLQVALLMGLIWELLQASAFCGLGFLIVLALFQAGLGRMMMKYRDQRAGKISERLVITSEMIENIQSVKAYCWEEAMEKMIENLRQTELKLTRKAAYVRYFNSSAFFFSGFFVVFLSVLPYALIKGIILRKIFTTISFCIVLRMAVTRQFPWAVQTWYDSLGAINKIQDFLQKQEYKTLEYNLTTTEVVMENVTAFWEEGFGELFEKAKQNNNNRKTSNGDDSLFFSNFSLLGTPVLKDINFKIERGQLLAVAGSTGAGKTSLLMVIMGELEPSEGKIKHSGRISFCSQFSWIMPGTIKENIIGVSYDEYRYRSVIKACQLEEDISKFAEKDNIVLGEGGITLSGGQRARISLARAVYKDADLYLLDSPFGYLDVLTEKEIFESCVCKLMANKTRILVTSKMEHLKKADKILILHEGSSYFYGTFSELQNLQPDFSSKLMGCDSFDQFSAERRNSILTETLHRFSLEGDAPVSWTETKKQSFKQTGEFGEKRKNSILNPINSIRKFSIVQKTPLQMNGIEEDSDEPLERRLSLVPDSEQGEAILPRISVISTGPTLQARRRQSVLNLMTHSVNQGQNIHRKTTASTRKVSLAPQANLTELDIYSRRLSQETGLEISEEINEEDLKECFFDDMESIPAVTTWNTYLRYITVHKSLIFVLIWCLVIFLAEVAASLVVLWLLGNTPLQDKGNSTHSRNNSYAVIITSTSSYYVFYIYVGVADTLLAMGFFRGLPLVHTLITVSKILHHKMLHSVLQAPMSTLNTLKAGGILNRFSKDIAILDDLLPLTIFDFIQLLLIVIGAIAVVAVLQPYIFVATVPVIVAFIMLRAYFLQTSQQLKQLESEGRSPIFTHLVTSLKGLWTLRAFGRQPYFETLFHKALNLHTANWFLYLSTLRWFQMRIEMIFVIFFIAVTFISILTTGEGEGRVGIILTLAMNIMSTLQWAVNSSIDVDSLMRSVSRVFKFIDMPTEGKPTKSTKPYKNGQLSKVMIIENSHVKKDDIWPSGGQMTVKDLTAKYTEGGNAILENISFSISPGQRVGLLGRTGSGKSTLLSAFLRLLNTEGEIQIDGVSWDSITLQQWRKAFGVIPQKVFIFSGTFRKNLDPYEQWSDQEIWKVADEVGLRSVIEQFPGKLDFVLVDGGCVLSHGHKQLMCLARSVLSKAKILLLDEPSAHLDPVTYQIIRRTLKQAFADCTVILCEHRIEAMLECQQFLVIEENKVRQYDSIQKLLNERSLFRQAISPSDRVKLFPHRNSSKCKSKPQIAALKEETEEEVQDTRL
test_readout: EC50

Look up EC50 for this compound: "Cc1cccc(C)c1-c1nc2nc(c1C)OC[C@@H](CC(C)(C)C)N(Cc1cnc3cc(C(C)(C)C)n(C)c3n1)C(=O)c1cccc(c1)S(=O)(=O)N2"
< 1000 nM

Next entry: Cc1cccc(C2CC2)c1-c1nc2nc(c1C)OC[C@@H](CC(C)(C)C)N(Cc1cnc3oc(C4CC4)cc3n1)C(=O)c1cccc(c1)S(=O)(=O)N2 (atropisomer, axis not shown)
< 1000 nM

Another: "Cc1cccc(C)c1-c1nc2nc(c1C)OC[C@@H](CC(C)(C)C)N(Cc1ncc3oc(C(C)(C)C)cc3n1)C(=O)c1cccc(c1)S(=O)(=O)N2"
< 1000 nM

* * *

Task for the reader: assign each of the following compounds its reported EC50.
molecular target: CFTR (F508del/MF-HBE cells) (Homo sapiens, UniProt P13569, DEL508-508); construct: human bronchial epithelial (HBE) cells derived from CF subjects heterozygous for F508del and a minimal function CFTR mutation (F508del/MF-HBE); endogenous in cells; host or cells: Primary human bronchial epithelial cells from CF subjects (F508del/MF genotype), differentiated at an air-liquid interface; test: Ussing chamber assay of CFTR-mediated short-circuit currents, Assay C (0.026 μM to 25 μM, 6 concentrations); format: cell-based; conditions: with 33 nM potentiator and 18 μM Tezacaftor, 20% human serum

What EC50 value was documented for this compound, Cc1cccc(C)c1-c1cc2nc(n1)NS(=O)(=O)c1cccc(c1)C(=O)N(Cc1cnc3oc(C4CC4)cc3n1)C(C(C(C)C)C(C)C)CO2 (single isomer, unassigned) ?
< 1000 nM

And what about the compound "Cc1cccc(C)c1-c1cc2nc(n1)NS(=O)(=O)c1cccc(c1)C(=O)N(Cc1nc3cc(C4CC4)oc3cc1F)[C@H](CC1(C)CC1)CO2" ?
1000 to 3000 nM

// repeat for "Cc1cccc(C)c1-c1nc2nc(c1C)OC[C@@H](C[C@H]1CCCCO1)N(Cc1cnc3cc(C(C)C)n(C)c3n1)C(=O)c1cccc(c1)S(=O)(=O)N2" and report
< 1000 nM

* * *

biological target: CFTR (F508del/MF-HBE cells) (Homo sapiens, UniProt P13569, DEL508-508); construct: human bronchial epithelial (HBE) cells derived from CF subjects heterozygous for F508del and a minimal function CFTR mutation (F508del/MF-HBE); endogenous in cells; host or cells: Primary human bronchial epithelial cells from CF subjects (F508del/MF genotype), differentiated at an air-liquid interface; test: Ussing chamber assay of CFTR-mediated short-circuit currents, Assay D (single concentration of 1 μM); assay type: cell-based; conditions: with 44 nM potentiator and 18 μM Tezacaftor, 18-24 hours, 20% human serum
test_readout: D activity at 1 μM (%)

Example cases with answers are listed next.
{"compound": "Cc1cccc(C)c1-c1cc2nc(n1)NS(=O)(=O)c1cccc(c1)C(=O)N(Cc1nc3c(cc1F)nc(C(C)C)n3C)[C@H](COC(C)C)CO2", "measured": "+++ (+++ is >60%)"}
{"compound": "Cc1cccc(C)c1-c1cc2nc(n1)NS(=O)(=O)c1cccc(c1)C(=O)N(Cc1cnc3cc(C4CC4)n(C)c3n1)[C@H](CC(C)(C)C)CO2", "measured": "+++ (+++ is >60%)"}
{"compound": "Cc1cccc(CC(C)C)c1-c1nc2nc(c1C)OC[C@@H](CC(C)(C)C)N(Cc1cnc3oc(C(C)(C)C)cc3n1)C(=O)c1cccc(c1)S(=O)(=O)N2 (atropisomer, axis not shown)", "measured": "+++ (+++ is >60%)"}
{"compound": "Cc1cccc(C)c1-c1cc2nc(n1)NS(=O)(=O)c1cccc(c1)C(=O)N(Cc1cnc3oc(C(C)C)cc3n1)[C@H](CC(C)C)CCO2", "measured": "+++ (+++ is >60%)"}

Fill in the recorded D activity at 1 μM (%) for this compound, with CFTR (F508del/MF-HBE cells) (Homo sapiens, UniProt P13569, DEL508-508) as test system: Cc1cccc(CC(C)C)c1-c1nc2nc(c1C)OC[C@@H](CC(C)(C)C)N(Cc1cnc3oc(C4CC4)cc3n1)C(=O)c1cccc(c1)S(=O)(=O)N2 (atropisomer, axis not shown)
+++ (+++ is >60%)

Same question for "Cc1cccc(C)c1-c1nc2nc(c1C)OC[C@@H](CC(C)(C)C)N(Cc1cnc3cc(C4(C)CC4)n(C)c3n1)C(=O)c1cccc(c1)S(=O)(=O)N2" please.
+++ (+++ is >60%)

Now consider "Cc1cccc(C)c1-c1nc2nc(c1C)OC[C@@H](CC1(C)CC1)N(Cc1cnc3oc(C(C)(C)C)cc3n1)C(=O)c1cccc(c1)S(=O)(=O)N2" and answer again.
+++ (+++ is >60%)
